Target: CYP121A1 (Mycobacterium tuberculosis, UniProt P9WPP7)
Construct: made in house
Sequence (P9WPP7 whole entry): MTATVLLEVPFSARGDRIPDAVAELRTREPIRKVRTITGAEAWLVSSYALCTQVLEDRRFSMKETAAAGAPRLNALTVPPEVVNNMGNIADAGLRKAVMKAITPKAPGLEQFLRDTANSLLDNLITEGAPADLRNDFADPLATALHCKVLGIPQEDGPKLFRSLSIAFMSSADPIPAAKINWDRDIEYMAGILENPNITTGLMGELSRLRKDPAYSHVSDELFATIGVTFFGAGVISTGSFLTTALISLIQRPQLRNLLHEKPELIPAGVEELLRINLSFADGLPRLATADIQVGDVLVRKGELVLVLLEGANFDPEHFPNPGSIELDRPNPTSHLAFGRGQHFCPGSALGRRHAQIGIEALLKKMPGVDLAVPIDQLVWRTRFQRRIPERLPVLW
Experiment: biochemical
Assay type: binding
Conditions: Soret maximum ligand-free to ligand-bound CYP121A1
Kindly state Soret peak shift for each of the entries shown.

• COc1ccc(-n2nc(C)cc2Cn2ccnc2)cc1 = 416.5 to 418.5 nm
• c1ccc(-n2cc(Cn3cncn3)c(-c3ccncc3)n2)cc1 = 416.5 to 417.5 nm
• CCCc1ccc(-c2nn(-c3ccccc3)cc2Cn2ccnc2)cc1 = 416.5 to 420 nm
• c1ccc(-n2cc(Cn3ccnc3)c(-c3cccnc3)n2)cc1 = 416.5 to 421 nm

Moving on to another compound below.
Prompt line: Supply recorded Soret peak shift for `COc1ccc(-n2nc(Cn3ccnc3)cc2C)cc1` here.
Response line: 416.5 to 418 nm
